- measured.target: eOD-GT8 (engineered outer domain germline-targeting version 8), monomer (HIV-1 gp120 engineered outer domain, …)
property.name: binding result

G001_gp1_V06_VRC01c_2021-0016 (antibody, V domains shown) VH: QVQLVQSGAEVKKPGASVTVSCKASGYTFTGYYMHWVRQAPGQGLEWMGWINPTSGGTNYGQKFQGRVTMTRDTSISTAYMELSRLRSDDTAVYYCAITTVTSTWAFDIWGQGTMVTVSS VL: EIVLTQSPGTLSLSPGERATLSCRASQSVSNNYLAWYQQTPGQAPRLLIYGASSRATGIPDRFSGSGSGTDFTLTISRLEPEDFAVYYCQQYETFGQGTKVEIK : binds
G001_gp1_V08_VRC01c_2021-0072 (antibody, V domains shown) VH: QVQLVQSGAEVKKPGASVKISCKASGYTFSGYYMHWVRQAPGQGLEWMGWINPNSGGTNYAQKFQDWVTMTRDTSISTVYMELSRLRSDDTAVYYCAREWCSGGTCYSGPTFDFWGQGTLVTVSS VL: EIVLTQSPGTLSLSPGERATLSCRASQSVSSNYLAWYQQKSGQAPRLLIYGASSRATGIPDRFSGSGSGTDFTLTISRLEPEDFAVYYCQHYETFGQGTKVEIK : binds
G001_gp1_V08_VRC01c_145 (antibody, V domains shown) VH: QVQLVQSGAEVKKPGASVKVSCRASGYTFTAYYIHWVRQAPGQGLEWMGWINPNSGGTNYAQKFQGRVTMTRDTSISTAYMELRRLRSDDTAVYYCARRFVSSGYYYAYWGQGTLVTVSS VL: EIVLTQSPGTLSLSPGERATLSCRASQSVSSSYLAWYQQKPGQAPRLLFYGASSRATGIPDRFSGSGSGTDFTLTISRLEPEDFAIYYCQHYETFGQGTKVEIK : binds
